MEASURED TARGET: human arginase I (ARG I) (Homo sapiens)
Sequence (P05089 whole entry): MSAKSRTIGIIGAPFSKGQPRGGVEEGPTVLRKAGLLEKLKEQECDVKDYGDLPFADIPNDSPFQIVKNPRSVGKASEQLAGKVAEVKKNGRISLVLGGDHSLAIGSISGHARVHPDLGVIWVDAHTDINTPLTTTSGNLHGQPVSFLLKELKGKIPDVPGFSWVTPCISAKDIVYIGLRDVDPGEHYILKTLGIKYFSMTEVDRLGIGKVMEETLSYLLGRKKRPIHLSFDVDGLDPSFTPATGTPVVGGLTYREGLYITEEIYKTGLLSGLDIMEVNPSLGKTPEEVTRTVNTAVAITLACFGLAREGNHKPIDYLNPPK
METHOD: Inhibition of arginase I, spectrophotometric urea assay at 530 nm
Format: biochemical
SETTINGS: Formula I compounds, Table 2; read-out: Potency (ARG I)
pIC50: −log10 of the molar value. Counter-ions that a name gives are not always drawn.
PARAMETER MEASURED: pIC50

CN(CCO)CCC(N)(CCCCB(O)O)C(=O)O (stereo not shown) [compound 43, dihydrochloride] : 5.70 to 6.00
CN(CCC(N)(CCCCB(O)O)C(=O)O)CC(O)c1ccccc1 (stereo not shown) [compound 78, dihydrochloride] : 5.30 to 5.70
NC(CCCCB(O)O)(CC(=O)O)C(=O)O (stereo not shown) [compound 106, hydrochloride] : < 5.30

Batch: pIC50 for all items listed.
1. NC(CCCCB(O)O)(CCNC(=S)Nc1ccc(Cl)c(Cl)c1)C(=O)O (stereo not shown) [compound 119, hydrochloride]
2. NC(CCCCB(O)O)(CCOc1ccc(Cl)cc1)C(=O)O (stereo not shown) [compound 92, hydrochloride]
3. CC[C@](N)(CCCCB(O)O)C(=O)O [compound 15, hydrochloride]
4. CN(CCC(N)(CCCCB(O)O)C(=O)O)CC(=O)O (stereo not shown) [compound 18, dihydrochloride]
5. NC(CCCCB(O)O)(CCN1CCC(C(F)(F)F)CC1)C(=O)O (stereo not shown) [compound 39, dihydrochloride]
6. NC(CCCCB(O)O)(CCNC1Cc2ccccc2C1)C(=O)O (stereo not shown) [compound 58, dihydrochloride]
7. N[C@](CCCCB(O)O)(CCN1CC[C@@H](CO)C1)C(=O)O [compound 7, dihydrochloride]
8. NC(CCCCB(O)O)(CCN1CC=C(c2ccccc2)CC1)C(=O)O (stereo not shown) [compound 28, dihydrochloride]

Result:
1. 6.00 to 6.60
2. < 5.30
3. 5.30 to 5.70
4. 5.30 to 5.70
5. 5.70 to 6.00
6. 6.60 to 10.00
7. 6.60 to 10.00
8. 6.00 to 6.60

Batch: pIC50 for all items listed.
1. NC(CCCCB(O)O)(CCN1CCC(Cc2ccccc2)CC1)C(=O)O (stereo not shown) [compound 125, dihydrochloride]
2. NC(CCCCB(O)O)(CCNCc1ccccc1)C(=O)O (stereo not shown) [compound 70, dihydrochloride]
3. CC(C)CCN1Cc2ccccc2CC1CCC(N)(CCCCB(O)O)C(=O)O (stereo not shown) [compound 133, dihydrochloride]
4. N[C@](CCCCB(O)O)(CCN1Cc2ccccc2C[C@H]1CO)C(=O)O [compound 1, dihydrochloride]
5. CN(CC[C@](N)(CCCCB(O)O)C(=O)O)C[C@@H](O)c1cccc(O)c1 [compound 12, dihydrochloride]

Result:
["6.00 to 6.60", "6.60 to 10.00", "6.60 to 10.00", "6.00 to 6.60", "6.60 to 10.00"]
